- Test system: CCRIS mutagenicity, Ames/micronucleus/aberration tests
- measurementNotes: CCRIS mutagenicity studies
- measurementParameters: Test System: AMES SALMONELLA TYPHIMURIUM; Strain/Indicator: TA102; Metabolic Activation: RAT, LIVER, S-9, AROCLOR 1254; Method: PREINCUBATION
Calls of active or inactive are those of the source. How the calls were made is not given here.
Write down the outcome that applies. Available outcomes: Y = active, N = inactive

# smilesString, group
records = [
    ("CC(=O)OC/C=C(C)/C=C/C=C(C)/C=C/C1=C(C)CCCC1(C)C", "N"),
    ("Cc1cnc(C)cn1", "N"),
]

## Input What outcome does the record of this test show for Oc1ccccc1O ?
## Output N

## Input Which outcome was assigned to O=C(O)CCC(=O)O in this test?
## Output N

## Input What call does the record list for Cc1nccc2c1[nH]c1ccccc12 ?
## Output N

## Input Entry CS(C)(=O)=O : call = ?
## Output N

###

- Tested on: CCRIS mutagenicity, Ames/micronucleus/aberration tests
- measurementNotes: CCRIS mutagenicity studies
- measurementParameters: Test System: AMES SALMONELLA TYPHIMURIUM; Strain/Indicator: TA98(NR); Metabolic Activation: NONE; Method: PREINCUBATION
Activity calls are given as the source filed them. How the calls were made is not given here.
Give your call using only these classes: True (active), False (inactive)

These recorded examples may help you get a feel for the data.
# smilesString, group
rows = [
    ("O=[N+]([O-])c1ccc(Nc2ncnc3nc[nH]c23)cc1", "False"),
    ("O=[N+]([O-])c1ccc2ccc3cc4ccccc4c4ccc1c2c34", "True"),
    ("CC(=O)Nc1ccc(Oc2ccc(N=O)cc2)cc1", "True"),
]

Could you now consider this next compound?
## Input Entry O=[N+]([O-])c1cccc2nc3ccccc3nc12 : call = ?
## Output True

###

- Tested on: CCRIS mutagenicity, Ames/micronucleus/aberration tests
- measurementNotes: CCRIS mutagenicity studies
- measurementParameters: Test System: Mouse lymphoma; Strain/Indicator: L5178Y (tk+/tk-); Metabolic Activation: Rat, Liver, S-9, Aroclor 1254; Method: Suspension/plate
Activity calls are given as the source filed them. No rule for the calls is given here.
Pick from class 1 for active, class 0 for inactive when you respond.

Known results for compounds:
# smilesString, group
records = [
    ("CSC[C@H](NC(=O)COc1cccc2cnccc12)C(=O)N[C@@H](Cc1ccccc1)[C@H](O)C(=O)N1CSC[C@H]1C(=O)NC(C)(C)C", "class 1"),
    ("CC(=O)OC(C)=O", "class 0"),
    ("C=CCO", "class 0"),
]

## Input What did the test return for O=C/C=C/C=C\c1ccc([N+](=O)[O-])cc1 ?
## Output class 0

## Input Query: recorded result category for Cc1cc(-c2ccc(N/N=C3\C=Cc4c(S(=O)(=O)O)cc(S(=O)(=O)O)c(N)c4C3=O)c(C)c2)ccc1N/N=C1\C=Cc2c(S(=O)(=O)O)cc(S(=O)(=O)O)c(N)c2C1=O in this test
## Output class 0

## Input Entry CC1(C)CC(O)CC(C)(C)N1[O] : call = ?
## Output class 1

## Input In this assay, the call recorded for C1CCC2=NCCCN2CC1 was what?
## Output class 0

## Input What call does the record list for CN1CC[C@H](c2c(O)cc(O)c3c(=O)cc(-c4ccccc4Cl)oc23)[C@H](O)C1 ?
## Output class 1

## Input Returns: the outcome recorded for Nc1ccccc1C(=O)O in this assay.
## Output class 1

## Input GET /call?item= O=S(=O)(O)c1cc(S(=O)(=O)O)c2c(N=Nc3ccc(S(=O)(=O)O)c4ccccc34)c(O)ccc2c1 returns the recorded outcome of this test.
## Output class 0
